Target: human calcium receptor (Homo sapiens, UniProt P41180, R990G)
Construct: expressed in transfected cells; host or cells: HEK 293
Sequence (P41180 20-1078 R990G): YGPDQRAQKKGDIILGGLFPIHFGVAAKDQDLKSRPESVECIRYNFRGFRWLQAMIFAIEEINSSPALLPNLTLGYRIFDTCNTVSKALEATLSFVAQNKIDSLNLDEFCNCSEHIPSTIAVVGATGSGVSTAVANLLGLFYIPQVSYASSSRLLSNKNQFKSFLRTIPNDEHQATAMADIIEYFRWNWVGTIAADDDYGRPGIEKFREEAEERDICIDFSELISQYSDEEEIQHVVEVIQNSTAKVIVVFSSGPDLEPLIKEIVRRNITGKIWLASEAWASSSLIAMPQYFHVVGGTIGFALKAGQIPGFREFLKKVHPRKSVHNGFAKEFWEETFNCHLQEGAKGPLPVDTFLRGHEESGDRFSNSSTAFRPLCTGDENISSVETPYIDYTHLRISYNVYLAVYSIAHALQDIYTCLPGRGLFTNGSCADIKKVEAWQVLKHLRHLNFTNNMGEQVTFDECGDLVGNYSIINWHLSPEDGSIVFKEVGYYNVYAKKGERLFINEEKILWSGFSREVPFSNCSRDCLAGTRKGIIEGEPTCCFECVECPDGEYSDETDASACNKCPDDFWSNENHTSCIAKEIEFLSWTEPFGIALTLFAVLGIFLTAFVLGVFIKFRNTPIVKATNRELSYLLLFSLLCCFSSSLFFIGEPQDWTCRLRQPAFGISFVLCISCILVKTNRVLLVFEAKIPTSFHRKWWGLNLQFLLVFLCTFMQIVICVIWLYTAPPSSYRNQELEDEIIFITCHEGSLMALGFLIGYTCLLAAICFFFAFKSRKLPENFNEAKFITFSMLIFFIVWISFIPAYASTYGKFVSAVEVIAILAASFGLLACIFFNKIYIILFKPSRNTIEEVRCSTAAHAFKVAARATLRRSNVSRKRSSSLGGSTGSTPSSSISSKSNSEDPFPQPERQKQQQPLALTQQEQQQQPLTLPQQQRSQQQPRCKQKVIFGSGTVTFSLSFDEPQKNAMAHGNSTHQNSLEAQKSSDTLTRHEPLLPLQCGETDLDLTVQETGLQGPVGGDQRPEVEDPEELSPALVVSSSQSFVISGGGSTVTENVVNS
Assay: increases in [Ca^2+ ]i in HEK-293 cells expressing the human calcium receptor (fura-2 loaded HEK 293/pHuPCaR4.0 cells), % activity
Type: cell-based
Conditions: 33 ng/mL

[
  {
    "molecule": "Cc1ccc(CNC(C)c2ccc(C(C)(C)C)cc2)cc1 (centres unmarked) [Compound 14B]",
    "% activity, %": 11
  },
  {
    "molecule": "C[C@@H](NCc1cccc(OC(F)(F)F)c1)c1cccc2ccccc12 [Compound 23E]",
    "% activity, %": 102
  },
  {
    "molecule": "COc1cccc([C@@H](C)NCc2ccc3c(c2)OCCO3)c1 [Compound 25O]",
    "% activity, %": 96
  },
  {
    "molecule": "CC(NCC=Cc1ccccc1[N+](=O)[O-])c1ccccc1 (centres unmarked) [Compound 5M]",
    "% activity, %": 21
  },
  {
    "molecule": "COc1ccc(CNC(C)c2ccc(F)c(F)c2)cc1C (centres unmarked) [Compound 24I]",
    "% activity, %": 55
  },
  {
    "molecule": "CCc1ccc(CN[C@H](C)c2cccc3ccccc23)cc1 [Compound 13N]",
    "% activity, %": 88
  },
  {
    "molecule": "CC(C)Cc1ccc(C(C)CNC(C)c2cccc3ccccc23)cc1 (centres unmarked) [Compound 13Z]",
    "% activity, %": 22
  },
  {
    "molecule": "COc1cccc([C@@H](C)NCc2cccc(OCc3ccccc3)c2)c1 [Compound 11W]",
    "% activity, %": 44
  },
  {
    "molecule": "C[C@@H](NCc1ccc(Br)cc1)c1cccc2ccccc12 [Compound 17D]",
    "% activity, %": 91
  },
  {
    "molecule": "C[C@@H](N[C@H](C)c1cccc2ccccc12)c1ccc2ccccc2c1.Cl [Compound 9R]",
    "% activity, %": 101
  },
  {
    "molecule": "C[C@@H](NCCCc1ccccc1Cl)c1cccc(OCC(F)(F)F)c1 [Compound 20Y]",
    "% activity, %": 74
  },
  {
    "molecule": "CC(NCCC(c1ccccc1)c1ccccc1)c1cccc(Cl)c1 (centres unmarked) [Compound 2Y]",
    "% activity, %": 10
  },
  {
    "molecule": "COc1cccc([C@@H](C)N[C@H](C)CCc2ccccc2)c1 [Compound 21D]",
    "% activity, %": 75
  },
  {
    "molecule": "C[C@@H](NCc1ccc(OCc2ccccc2)cc1)c1cccc2ccccc12 [Compound 12I]",
    "% activity, %": 93
  },
  {
    "molecule": "COc1ccc(CNC(C)c2cccc(Cl)c2)cc1C (centres unmarked) [Compound 23N]",
    "% activity, %": 50
  },
  {
    "molecule": "CCCOc1ccc(CN[C@H](C)c2cccc3ccccc23)cc1 [Compound 13Q]",
    "% activity, %": 46
  },
  {
    "molecule": "C[C@@H](NCc1cccc2ccccc12)c1cccc2ccccc12 [Compound 25L]",
    "% activity, %": 85
  },
  {
    "molecule": "COc1cccc([C@@H](C)NCC(C)=Cc2ccccc2)c1 [Compound 25G]",
    "% activity, %": 99
  },
  {
    "molecule": "C[C@@H](NCc1ccc2ccccc2c1)c1cccc2ccccc12 [Compound 9C]",
    "% activity, %": 82
  },
  {
    "molecule": "Cc1ccc(CNCc2cccc3c(Br)cccc23)cc1C [Compound 23D]",
    "% activity, %": 35
  },
  {
    "molecule": "CC(NC(C)c1cccc2ccccc12)c1ccc2c(c1)-c1ccccc1-2 (centres unmarked) [Compound 10Q]",
    "% activity, %": 84
  },
  {
    "molecule": "C[C@@H](N[C@H](C)c1cccc2ccccc12)c1cccc(Cl)c1 [Compound 14Q]",
    "% activity, %": 78
  },
  {
    "molecule": "COc1cccc([C@@H](C)N[C@H](C)CCc2cccc(OC(F)(F)F)c2)c1 [Compound 23A]",
    "% activity, %": 67
  }
]
